# Tested on: SF-295 CNS
# experiment.description: NCI-60 one-dose screen, 48 h
# protocol.conditions: 10 µM unless noted
# Experimental: Cells are grown in 96 well plates and exposed to the test compound for 48 hours. Compounds are tested at a single concentration, which is 10^-5 M for most compounds. The reported endpoint is percent growth (GI% or GIPRCNT), where numbers from 0 - 100% represent growth inhibition, and numbers from -100% - 0 represent cell death. For example, a value of 40 represents 60% growth inhibition. A value of 0 means no net growth occurred over the course of the experiment. […]
The panel holds about 83,000 compounds, 20% with a hit somewhere; the sample as a whole holds those more often. Active and inactive are the calls of the source. Rule for the calls: active = growth percent below 10; inactive = the rest.
The categories you may choose from are 1 for active, -1 for inactive

As a guide, the following entries are already answered.
C(=C\c1c[nH]c2ccccc12)/c1ccc2ccccc2n1: -1
CC1(C)C(=O)/C(=C\c2cccnc2)C[C@]2(C)[C@H]3CC[C@@H]4[C@@H](C(=O)/C=C/c5ccncc5)CC[C@@]4(C)[C@]3(C)CC[C@@H]12: -1
Cc1cccc(C)c1NC(=O)CSC(=S)N1CCCCC1: -1
C[C@H]1OC(=O)/C=C/[C@@H](O)[C@@H](O)CCCCCCCC[C@@H]1O: -1

Q) For this compound, state the assay outcome: NC1=NN=C2N(N)C(=O)c3cnn(-c4ccccc4)c3N2c2nc(-c3ccccc3)cc(-c3ccccc3)c21
A) -1

* * *

# System: MDA-MB-231 breast
# experiment.description: NCI-60 one-dose screen, 48 h
# protocol.conditions: 10 µM unless noted
The panel holds about 83,000 compounds, 20% with a hit somewhere; the sample as a whole holds those more often. Active and inactive are the calls of the source. The calls were made as follows: active = growth percent below 10; inactive = the rest.
The categories you may choose from are TRUE for active, FALSE for inactive

COc1ccc(NC(=O)c2ccc3c(c2)nc(-c2cc4ccccc4[nH]c2=O)n3-c2cc(C(C)(C)C)[nH]n2)cc1: FALSE

Q) For this compound, state the assay outcome: CC[C@]12C=CCN3CC[C@@]4(c5cc([C@H]6CCC(=O)N6)c(OC)cc5N(C)[C@H]4[C@@](O)(C(=O)OC)[C@@H]1OC(C)=O)[C@@H]32
A) FALSE

Q) For this compound, state the assay outcome: Oc1cccc2ccc(N/N=C/c3cc(CN4CCCCC4)c(O)c4ncccc34)nc12
A) TRUE

Q) For this compound, state the assay outcome: Cc1ccc(S(=O)(=O)Nc2ccc(-c3cc(-c4cccc(F)c4)c(C#N)c(=O)[nH]3)cc2)cc1
A) FALSE

Q) For this compound, state the assay outcome: OCCNc1nc(Nc2ccc(Cl)c(Cl)c2)nc2ccccc12
A) TRUE

Q) For this compound, state the assay outcome: COc1cccc(-c2nn(-c3ccccc3)cc2-c2ccnc(NCCCNS(=O)(=O)c3ccc(Br)cc3)c2)c1
A) FALSE

Q) For this compound, state the assay outcome: CCCCC[C@H]1C/C=C2/C(=O)C(Cl)=C[C@@H]2C/C=C\CCCC(=O)O[C@@H](CCCCC)C/C=C2/C(=O)C(Cl)=C[C@@H]2C/C=C\CCCC(=O)O1
A) TRUE

* * *

# System: M14 melanoma
# experiment.description: NCI-60 one-dose screen, 48 h
# protocol.conditions: 10 µM unless noted
# Experimental: Growth inhibition of the M14 human tumor cell line is measured as a screen for anti-cancer activity. Cells are grown in 96 well plates and exposed to the test compound for 48 hours. Compounds are tested at a single concentration, which is 10^-5 M for most compounds. The reported endpoint is percent growth (GI% or GIPRCNT), where numbers from 0 - 100% represent growth inhibition, and numbers from -100% - 0 represent cell death. For example, a value of 40 represents 60% growth inhibition. […]
This is part of a sample that, as a whole, favours compounds with a hit. Of some 83,000 tested, about 20% had one in any assay. The source made the active and inactive calls. Rule for the calls: active = growth percent below 10; inactive = the rest.
The categories you may choose from are active, inactive

As a guide, the following entries are already answered.
COc1ccc2[nH]c(-c3ccc(Cl)cc3)cc(=O)c2c1: inactive
N#C/C(=C\c1ccc(-c2cccc(C(F)(F)F)c2)o1)c1nc(-c2ccco2)cs1: inactive
O=C(NO)c1ccc(Cn2c(=O)n(-c3ccccc3)c(=O)c3ccccc32)cc1: active

Next molecule, please.
Q) For this molecule, state the assay outcome: N#C/C(=C\c1ccc(-c2ccc(Br)cc2)o1)c1nc(-c2ccco2)cs1
A) inactive

Numbers sourced from PubChem BioAssay (NCI).
